The values you see were collected from PubChem BioAssay (NCI).

# System: HS 578T breast
# assay_procedure: NCI tumour cell line growth inhibition, 48 h
observation_type: TGI

[[record]]
compound = "CCCCCCCCCCCCCCCCOP(=O)(O)OCC(NC(C)=O)C(=O)O (centres undefined)"
study_target = "HS 578T breast"
observation_type = "TGI"
observed_measurement = "> 100 µM"

[[record]]
compound = "O=C1c2ccccc2-c2c1c1c(O)cccc1n2Cc1ccccn1"
study_target = "HS 578T breast"
observation_type = "TGI"
observed_measurement = "> 100 µM"

[[record]]
compound = "O=C1NC(N2CCCCC2)=N/C1=C\\c1ccc(Cl)cc1"
study_target = "HS 578T breast"
observation_type = "TGI"
observed_measurement = "> 100 µM"


Task: Give measured TGI for CSc1nc(C)c(CCOC(C)=O)c(Cl)n1 (HS 578T breast).
Result: > 100 µM

* * *

# Tested on: UACC-257 melanoma
# assay_procedure: NCI tumour cell line growth inhibition, 48 h
In this section we review reported TGI values for a set of molecules.

These solved cases illustrate the format of a correct answer.
[[record]]
molecule = "O=C(CC(=O)c1cccc2ccccc12)C(=O)NC1C2CC3CC(C2)CC1C3 (stereo not drawn)"
study_target = "UACC-257 melanoma"
observed_measurement = "> 100 µM"

[[record]]
molecule = "CC(=O)O[C@@]1(C)[C@@H](C)C(=O)O[C@@H]2CCN3CC=C(COC(=O)[C@]1(C)O)[C@H]23"
study_target = "UACC-257 melanoma"
observed_measurement = "> 100 µM"


Lab note: next molecule to report on.
Task: Fill in TGI for Cc1ccc(NC(=O)CSc2nnc3n(Cc4ccccc4)c(=O)c4c(C)c(C(N)=O)sc4n23)cc1 tested with UACC-257 melanoma.
Result: > 100 µM

* * *

# Test system: OVCAR-5 ovarian
# assay_procedure: NCI tumour cell line growth inhibition, 48 h
observation_type: TGI

Some solved cases for reference:
[[record]]
compound = "CC(C)(C)OC(=O)NCCNCCNc1ccccc1"
observed_measurement = "> 100 µM"

[[record]]
compound = "C=C1CC2CC(O)CC(C1)C2 (centres undefined)"
observed_measurement = "> 100 µM"


For the next question, use this compound.
Task: Supply TGI value. Item: O=C1OC(=O)C2CCCC3CCCC1C32 (centres undefined)
Result: > 100 µM

* * *

# Test system: MCF7 breast
# assay_procedure: NCI tumour cell line growth inhibition, 48 h; in the data active = GI50 below about 0.43 µM; inactive = the rest
Just give me one of these, please: 1.0 for active, 0.0 for inactive

[[record]]
compound = "O=C(Nc1cccc(Cl)c1)c1cccc(NC2=C(Cl)C(=O)N(Cc3ccccc3)C2=O)c1"
class = 0.0

[[record]]
compound = "NS(=O)(=O)c1ccc(N(/C=C/C(=O)C(F)(F)F)Cc2ccc(Cl)cc2)cc1"
class = 0.0

[[record]]
compound = "CC(=O)O[C@H]1[C@@H]2OC(=O)C(CSc3ccccc3)[C@@H]2C[C@H]2O[C@]2(C)CC/C=C(\\C)CCC[C@@H]1C (stereo partly drawn)"
class = 0.0


Task: Outcome logged for Cc1ccc(NC(=O)CSc2nnc3n(Cc4ccccc4)c(=O)c4c(C)c(C(N)=O)sc4n23)cc1 in this assay:
Result: 0.0

Task: I would be grateful if you could indicate the recorded call for CC1=C(C(=O)Nc2cc(Cl)c3[nH]ncc3c2)C(c2ccc(C(F)(F)F)cc2)CC(=O)N1 (stereo not drawn) .
Result: 0.0

Task: # fetch the recorded call for O=C(/C=C/C12c3ccccc3C(c3ccccc31)C1C(=O)NC(=O)C12)c1ccc(F)cc1 (stereo not drawn) here
Result: 0.0

Task: Given [N-]=[N+]=NCCCn1c2c(c3ccc([N+](=O)[O-])cc3c1=O)C(=O)c1cc(F)ccc1-2 , state the outcome it received in this test.
Result: 1.0

Task: Lab log entry: COC(=O)c1cc2c3ccccc3[nH]c2c2sccc12 — outcome as called in the assay?
Result: 0.0

* * *

# Tested on: 786-0 renal
# assay_procedure: NCI tumour cell line growth inhibition, 48 h
observation_type: TGI

Here are 2 compounds together with their reported answers.
[[record]]
compound = "O=C(O)CCC(N=NNc1ccc(-c2nc3ccccc3[nH]2)cc1)C(=O)O (stereo not drawn)"
observation_type = "TGI"
observed_measurement = "> 100 µM"

[[record]]
compound = "ON[C@H]1C[C@@H](n2cnc3c(NC4CC4)ncnc32)[C@H](O)[C@@H]1O"
observation_type = "TGI"
observed_measurement = "> 100 µM"


Task: Supply TGI value. Item: CCNC12CCC(C1)C(C)(C)C2=O (stereo not drawn)
Result: > 100 µM

* * *

# Test system: SF-295 CNS
# assay_procedure: NCI tumour cell line growth inhibition, 48 h
Where a SMILES comes first, the peptide text is derived from it. [ ]: non-standard residue; d: D form. ξ: configuration not given here. ξLac(3-iPr) = CC(C)CC(O)C(=O)O; NMeV = CN[CH](C(=O)O)C(C)C; NMeA = CN[CH](C)C(=O)O; βAla = NCCC(=O)O
observation_type: TGI

[[record]]
molecule = "O=C(N/N=C/c1ccc(O)cc1O)c1cccc(Nc2ccnc(C(F)(F)F)c2)c1"
observation_type = "TGI"
observed_measurement = "45.8 µM"

[[record]]
molecule = "O=c1[nH]nc(-c2ccccc2)n1/N=C/c1ccccc1Cl"
observation_type = "TGI"
observed_measurement = "> 100 µM"

[[record]]
molecule = "CCC(C)C1NC(=O)C2CCCN2C(=O)C(CC(C)C)OC(=O)CCNC(=O)C(C)N(C)C(=O)C(C(C)C)N(C)C1=O (centres undefined) (cyclo([ξLac(3-iPr)]PI[NMeV][NMeA][βAla]); configuration not given here)"
observation_type = "TGI"
observed_measurement = "8.05 µM"

[[record]]
molecule = "O=C(c1ccccc1)C1C(c2ccccc2)N1S(=O)(=O)c1ccccc1 (centres undefined)"
observation_type = "TGI"
observed_measurement = "> 100 µM"

[[record]]
molecule = "O=C1/C(=C/c2ccc(Oc3ccccc3)cc2)N=C(c2ccccc2)N1c1ccc(S(=O)(=O)Nc2nccs2)cc1"
observation_type = "TGI"
observed_measurement = "85.5 µM"

[[record]]
molecule = "CCOC(=O)C1=C(C)N(Cc2ccc(Cl)cc2Cl)C2(O)C=CC(=O)C3=C(O)c4ccccc4C(=O)C312 (centres undefined)"
observation_type = "TGI"
observed_measurement = "14.9 µM"

[[record]]
molecule = "O=C(NNC(=S)NCc1ccccc1)c1csc(NC(=S)NC2CCCCC2)n1"
observation_type = "TGI"
observed_measurement = "> 100 µM"

[[record]]
molecule = "O=C(c1ccccc1)c1nc2ccc(Cl)cc2c2c1CCCO2"
observation_type = "TGI"
observed_measurement = "> 100 µM"

[[record]]
molecule = "O=c1[nH]c(=O)n(C2CC(O)C(CO)O2)c2nc3ccc4cc5ccccc5cc4c3nc12 (centres undefined)"
observation_type = "TGI"
observed_measurement = "> 100 µM"

[[record]]
molecule = "Cn1c(N)nc(=O)c2c1N(C1OC(CO)C(O)C1O)CN2Cc1ccccc1 (centres undefined)"
observation_type = "TGI"
observed_measurement = "> 100 µM"


Task: Consider the molecule C/C=C(\CCOS(=O)(=O)c1ccc(C)cc1)[Si](C)(C)C and give its recorded TGI.
Result: > 100 µM

Task: State its TGI: CN(C)c1ccc(C2CC(c3ccc4ccccc4c3O)=NN2c2ccc([N+](=O)[O-])cc2[N+](=O)[O-])cc1 (centres undefined)
Result: > 100 µM

Task: Please report the measured TGI for CO/N=C\c1cc(O)c(O)c(/C=N/OC)c1
Result: > 100 µM

Task: Please give the documented TGI of CC(=O)O[C@H]1[C@@H]2OC(=O)C(CSc3ccccc3)[C@@H]2C[C@H]2O[C@]2(C)CC/C=C(\C)CCC[C@@H]1C (some centres undefined)
Result: 34.6 µM

* * *

Recorded TGI, one value per entry.
# Tested on: NCI/ADR-RES ovarian
# assay_procedure: NCI tumour cell line growth inhibition, 48 h

[[record]]
compound = "C/C(=C\\c1cc(C(F)(F)F)n(-c2ccc(N)cc2)n1)[C@@H]1C[C@@H]2O[C@]2(C)CCC[C@H](C)[C@H](O)[C@@H](C)C(=O)C(C)(C)[C@@H](O)CC(=O)O1"
observation_type = "TGI"
observed_measurement = "> 8.45 µM"

[[record]]
compound = "CC([C@H]1CCC2C3CCC4C[C@@H](N)CC[C@]4(C)C3CC[C@@]21C)N(C)C (stereo not given in full)"
observation_type = "TGI"
observed_measurement = "48.7 µM"

[[record]]
compound = "Cc1cc2c(C(N)=O)c(N)n(-c3c(C)ccc(O)c3C)c2nc1C"
observation_type = "TGI"
observed_measurement = "32.7 µM"

[[record]]
compound = "O=C(c1ccccc1)C1C(c2ccccc2)N1S(=O)(=O)c1ccccc1 (stereo not given)"
observation_type = "TGI"
observed_measurement = "> 100 µM"

[[record]]
compound = "CCOC(=O)c1c(C)n(C)c2c1cc(O)c1[nH]c3c(c12)CCCC3"
observation_type = "TGI"
observed_measurement = "54 µM"

[[record]]
compound = "CCN(CC)c1ccc2nc3ccc(N=Nc4c(O)ccc5ccccc45)cc3[n+](-c3ccccc3)c2c1"
observation_type = "TGI"
observed_measurement = "> 100 µM"

[[record]]
compound = "CC1(N)CCN(c2cnc(-c3cccc(Cl)c3Cl)c(N)n2)CC1"
observation_type = "TGI"
observed_measurement = "> 100 µM"

[[record]]
compound = "O=C(CCc1ccccc1)n1cccc1CO"
observation_type = "TGI"
observed_measurement = "> 100 µM"


Task: Quickly give me recorded TGI for CSc1nc2c(c(N3CCOCC3)n1)C(O)n1c(nc3ccccc31)S2 (stereo not given)
Result: > 100 µM

Task: Look up and report measured TGI for this entry: CN1CCN(c2ccc(NC(=O)c3cncnc3Nc3ccc(OCc4ccccn4)c(Cl)c3)cc2)CC1
Result: 17.1 µM

Task: Given the compound C[N+](C)(C)c1cc2c(nn1)Nc1ccccc1S2 , write its reported TGI.
Result: 56.9 µM

Task: Please give the documented TGI of OCCNc1nc(Nc2ccc(Cl)c(Cl)c2)nc2ccccc12
Result: 20 µM

Task: Please look at this compound and report its TGI: CSC(=S)OC1CC(n2cnc3c(NC(=O)c4ccccc4)ncnc32)OC1CO[Si](C)(C)C(C)(C)C (stereo not given)
Result: > 56.2 µM

Task: Identify measured TGI associated with COC(=O)C1Cc2ccc3c(c2C1=O)CCCC3 (stereo not given)
Result: > 100 µM

Task: Complete the entry with TGI for CCN(CC)C1C(=O)NC1C#Cc1ccccc1 (stereo not given)
Result: > 100 µM

Task: Give TGI for COc1ccc(C2=C(N)c3ncccc3C2=O)cc1
Result: > 100 µM

Task: For the compound CCOC(=O)c1c(C)n([O-])c2cc(Cl)c(Cl)cc2[n+]1=O , report TGI.
Result: 66.6 µM

Task: In one line, give reported TGI of the entry COc1cc2c(cc1OC)CC1c3cc(OC)c(OC)cc3CCN1CC2 (stereo not given) .
Result: > 100 µM

Task: Kindly indicate its recorded TGI. Item: C[N+](C)(C)CC(=O)N/N=C(\C(=O)NC1=C(Cl)C(=O)c2ccccc2C1=O)C(C#N)c1nc(-c2ccc([N+](=O)[O-])cc2)cs1 (stereo not given)
Result: > 57.5 µM

Task: Identify the reported TGI for the following entry. CC1(C)NCCC[C@]2(C)[C@H]3CC[C@@H]4[C@H]5[C@H](C(=O)/C=C/c6ccccn6)CC[C@]5(CO)CC[C@@]4(C)[C@]3(C)CC[C@@H]12
Result: 13.9 µM

Task: Give a short answer stating reported TGI for Cc1ccc(C(=O)/C(=C\c2ccc([N+](=O)[O-])cc2)S(=O)Cc2ccc(Cl)cc2)cc1 (stereo not given) .
Result: 7.97 µM

Task: Fill in TGI for record Cc1nc2[nH]ncn2c(=O)c1CCCl
Result: > 10 µM
